- target.or.system: T1, human CD24 protein (ACRO) (human, UniProt P25063 27-59)
- T1 construct: also called analyte human CD24 protein
- T1 chain (looked up): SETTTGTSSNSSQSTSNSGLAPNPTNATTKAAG
- experiment.notes: BLI (ForteBio Octet RED96e), antibody immobilised, human CD24 protein as analyte
- Procedure: ForteBio […] (BLI) was used to detect the affinity of humanized antibodies. The sample to be tested (solidified) was diluted to 20 μg/mL with 0.02% PBST (buffer). The analyte human CD24 protein (ACRO) was diluted to 100 nM with 0.02% PBST (buffer) as the initial concentration, and then diluted by double gradient for 7 gradients starting from this concentration, and a negative control (buffer) was performed. […]
Assign Kd to each entry below.
Value expressed in nM; do not type the unit.

Lab note: humanized antibody hu-01-L1H4 (antibody, human IgG1, kappa, V domains shown, Humanized from ms-01: light chain L1, heavy chain H4) VH: QVQLVQSGSELKKPGASVKVSCKASGYIFTDYAIHWVKQAPGQGLKWMGFINTATGEPTYADDFKGRFVFSLDTSVSTAYLQISSLKAEDTAVYFCTSGVHWGQGTLVTVSS VL: DIQMTQSPSTLSASVGDRVTITCSASSSVSSMHWYQQKPGKAPKLLIYSTSNLASGVPSRFSGSGSGTEFTLTISSLQPDDFATYYCHHWTSYMYTFGGGTKVEIKR gave Kd of 48.2

GET /value?item= humanized antibody hu-02-L1H7 (antibody, human IgG1, kappa, V domains shown, Humanized from ms-02: light chain L1, heavy chain H7) VH: EVQLQESGPGLVKPSQTLSLTCTVSGYSITSGYTWHWIRQFPGNKLEWIGHIQYTGNTKYNPSLESRITISRDTSKNQFSLKLSSVTAADTATYYCARGSTNSNDYWGQGTLVTVSS VL: DIVMTQSPDSLAVSLGERATINCKSSQSLLYSNDQKNYLAWYQQKPGQPPKLLIYWASTRESGVPDRFSGSGSGTDFTLTISSLQAEDVAVYYCQQYFIYPLTFGGGTKLELKR &field=Kd returns 20.5

Kindly note the recorded Kd for humanized antibody hu-01-L1H3 (antibody, human IgG1, kappa, V domains shown, Humanized from ms-01: light chain L1, heavy chain H3) VH: QVQLVQSGSELKKPGASVKVSCKASGYIFTDYAIHWVKQAPGQGLEWMGFINTATGEPTYADDFKGRFVFSLDTSVSTAYLQISSLKAEDTAVYFCTSGVHWGQGTLVTVSS VL: DIQMTQSPSTLSASVGDRVTITCSASSSVSSMHWYQQKPGKAPKLLIYSTSNLASGVPSRFSGSGSGTEFTLTISSLQPDDFATYYCHHWTSYMYTFGGGTKVEIKR , which is 10
